Value source: ChEMBL document CHEMBL3856287

- System: Aspergillus niger
- protocol_details: Antifungal activity against Aspergillus niger ATCC 16404 assessed as radial growth inhibition at 64 ug/ml after 5 to 7 days relative to control
- Assay type: functional
- setup_conditions: read-out: GI
The entries below are paired with their reported inhibition of growth at 64 µg/mL.
Answer format: numeric, % implied, no suffix.

Below: 8 molecules and their reported inhibition of growth at 64 µg/mL.
{"columns": ["structure_smiles_string", "inhibition of growth at 64 µg/mL, %"],
 "data": [
  ["O=S(=O)(CCn1nnc(-c2ccccc2)n1)c1ccccc1", 18.5],
  ["c1ccc(-c2nnn(CCCSc3nc4ccccc4s3)n2)cc1", 4.4],
  ["O=S(=O)(CCn1nnc(-c2ccccc2Cl)n1)c1ccccc1", 17.1],
  ["Cc1ccc(-c2nnn(CCCSc3nc4ccccc4s3)n2)cc1", 3],
  ["c1ccc(-c2nnn(CCCSc3nc4ccccc4o3)n2)cc1", 20.6],
  ["Clc1ccccc1-c1nnn(CCCSc2nc3ccccc3o2)n1", 6],
  ["Clc1ccc(-c2nnn(CCCSc3nc4ccccc4s3)n2)cc1", 0],
  ["O=S(=O)(CCn1nnc(-c2ccc(Cl)cc2)n1)c1ccccc1", 11.2]
]}

Prompt: Test system Aspergillus niger; read-out inhibition of growth at 64 µg/mL; what value for Clc1ccc(-c2nnn(CCCSc3nc4ccccc4o3)n2)cc1 ?
Completion: 11.8

Prompt: Quick one: Clc1ccccc1-c1nnn(CCCSc2nc3ccccc3s2)n1
Completion: 0

Prompt: Quick one: Cc1ccc(-c2nnn(CCCSc3nc4ccccc4o3)n2)cc1
Completion: 11.8

---

- protocol_details: Antifungal activity against Colletotrichum coccodes MC1 assessed as radial growth inhibition at 64 ug/ml after 5 to 7 days relative to control
- Type: functional
The threshold is inclusive: growth inhibition (GI) of exactly 30% counts as Yes; values below receive No.

Example cases with answers are listed next.
{"columns": ["structure_smiles_string", "group"],
 "data": [
  ["Clc1ccc(-c2nnn(CCCSc3nc4ccccc4s3)n2)cc1", "Yes"],
  ["O=S(=O)(CCn1nnc(-c2ccc(Cl)cc2)n1)c1ccccc1", "No"],
  ["Clc1ccccc1-c1nnn(CCCSc2nc3ccccc3o2)n1", "Yes"],
  ["c1ccc(-c2nnn(CCCSc3nc4ccccc4o3)n2)cc1", "Yes"],
  ["Cc1ccc(-c2nnn(CCCSc3nc4ccccc4o3)n2)cc1", "Yes"],
  ["O=S(=O)(CCn1nnc(-c2ccccc2)n1)c1ccccc1", "Yes"],
  ["c1ccc(-c2nnn(CCCSc3nc4ccccc4s3)n2)cc1", "No"],
  ["Clc1ccccc1-c1nnn(CCCSc2nc3ccccc3s2)n1", "No"]
]}

Prompt: Is the recorded value of growth inhibition (GI) equal to or greater than 30% for this molecule? Cc1ccc(-c2nnn(CCCSc3nc4ccccc4s3)n2)cc1
Completion: Yes

Prompt: Quick one: Clc1ccc(-c2nnn(CCCSc3nc4ccccc4o3)n2)cc1
Completion: Yes

Prompt: Quick one: O=S(=O)(CCn1nnc(-c2ccccc2Cl)n1)c1ccccc1
Completion: Yes

---

The entries below are paired with their reported growth inhibition (GI).
- protocol_details: Antifungal activity against Fusarium oxysporum MF5 assessed as radial growth inhibition at 64 ug/ml after 5 to 7 days relative to control
- Format: functional
Answer format: numeric, % implied, no suffix.

Below: 5 compounds and their reported growth inhibition (GI).
{"columns": ["structure_smiles_string", "observed_value"],
 "data": [
  ["Clc1ccccc1-c1nnn(CCCSc2nc3ccccc3o2)n1", 0],
  ["c1ccc(-c2nnn(CCCSc3nc4ccccc4s3)n2)cc1", 0],
  ["O=S(=O)(CCn1nnc(-c2ccccc2Cl)n1)c1ccccc1", 31.2],
  ["Cc1ccc(-c2nnn(CCCSc3nc4ccccc4s3)n2)cc1", 0],
  ["O=S(=O)(CCn1nnc(-c2ccccc2)n1)c1ccccc1", 17.7]
]}

Prompt: Need growth inhibition (GI), item c1ccc(-c2nnn(CCCSc3nc4ccccc4o3)n2)cc1
Completion: 6

Prompt: Quick one: Clc1ccc(-c2nnn(CCCSc3nc4ccccc4s3)n2)cc1
Completion: 0

Prompt: Quick one: Cc1ccc(-c2nnn(CCCSc3nc4ccccc4o3)n2)cc1
Completion: 0

Prompt: Quick one: Clc1ccc(-c2nnn(CCCSc3nc4ccccc4o3)n2)cc1
Completion: 4

Prompt: Quick one: Clc1ccccc1-c1nnn(CCCSc2nc3ccccc3s2)n1
Completion: 0

Prompt: Quick one: O=S(=O)(CCn1nnc(-c2ccc(Cl)cc2)n1)c1ccccc1
Completion: 1.7
